# system under test: Human GPR120 short form (Homo sapiens)
# Construct: expressed in transfected cells
# assay: Human GPR120 calcium flux assay, Procedure Calcium B
# Type: cell-based
# measurement setup: HEK-293 cells expressing human GPR120 short form, 4200 cells/well, FLIPR
pEC50: −log10 of the molar value.
readout label: pEC50

| molecule | readout label | numeric readout |
| --- | --- | --- |
| Cc1ccc(-n2ccc(C(F)(F)F)c2COc2c(F)cc(CC(C)C(=O)O)cc2F)cc1F (stereo not shown) | pEC50 | 6.67 |
| O=C(O)CCc1ccc(OCc2c(C(F)(F)F)ccn2-c2ccc(Cl)cc2)c(F)c1F | pEC50 | 7.04 |

I: Cc1ccc(-n2ccc(C(F)(F)F)c2COc2c(F)cc(CCC(=O)O)cc2F)cn1
II: Cc1ccc(-n2ccc(C(F)(F)F)c2COc2c(F)cc(CCCO)cc2F)cc1
When their pEC50 values are compared, which is larger, I or II ? Provide the label of your selected option as the answer.
II

###

# system under test: long form of human GPR120 (Homo sapiens)
# assay: Human GPR120 DiscoveRx PathHunter β-Arrestin assay, Procedure β-arrestin A
# measurement setup: PathHunter CHO-K1 GPR120 β-Arrestin cell line, 3000 cells per well
readout label: EC50 (nM)

As a guide, the following entries are already answered.
| smiles code | readout label | unit label | numeric readout |
| --- | --- | --- | --- |
| OCCCc1ccc(OCc2c(Cl)ccn2-c2ccc(Cl)cc2)c(F)c1F | EC50 | nM | 258 |
| Cc1c(CCC(=O)O)ccc(OCc2c(Cl)ccn2-c2ccc(Cl)cc2)c1C | EC50 | nM | 1000 |
| COc1ccc(-n2ccc(C(F)(F)F)c2COc2c(F)cc(CCCO)cc2F)cc1 | EC50 | nM | 61 |
| CCc1ccc(-n2ccc(C(F)(F)F)c2COc2ccc(CCC(=O)O)c(F)c2F)cc1 | EC50 | nM | 171 |
| O=C(O)CCc1ccc(OCc2c(Cl)ccn2-c2ccc(Cl)cc2)c(F)c1F | EC50 | nM | 859 |
| COc1ccc(-n2ccc(C(F)(F)F)c2COc2ccc(CCC(=O)O)c(C)c2C)cc1 | EC50 | nM | 308 |

A: CCc1ccc(-n2ccc(C(F)(F)F)c2COc2ccc(CCC(=O)O)c(F)c2F)cn1
B: CCc1ccc(-n2ccc(C(F)(F)F)c2COc2c(F)cc(CCCO)cc2F)cc1
When their EC50 values are compared, which is larger, A or B ? Provide the label of your selected option as the answer.
A
(A: 932 nM, B: 48 nM)

###

# system under test: Human GPR120 short form (Homo sapiens)
# Construct: expressed in transfected cells
# Sequence (Q5NUL3 1-361): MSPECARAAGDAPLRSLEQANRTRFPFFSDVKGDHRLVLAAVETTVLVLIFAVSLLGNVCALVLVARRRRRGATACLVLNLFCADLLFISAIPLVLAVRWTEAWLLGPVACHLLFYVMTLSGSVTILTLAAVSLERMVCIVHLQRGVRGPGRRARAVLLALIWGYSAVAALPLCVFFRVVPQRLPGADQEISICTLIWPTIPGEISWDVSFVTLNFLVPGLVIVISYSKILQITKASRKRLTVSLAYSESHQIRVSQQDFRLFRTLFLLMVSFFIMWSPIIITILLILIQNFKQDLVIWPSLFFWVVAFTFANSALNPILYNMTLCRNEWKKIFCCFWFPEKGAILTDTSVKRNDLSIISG
# assay: Human GPR120 calcium flux assay, Procedure Calcium B
# Format: cell-based
# measurement setup: HEK-293 cells expressing human GPR120 short form, 4200 cells/well, FLIPR
pEC50: −log10 of the molar value.
readout label: pEC50

| smiles code | pEC50 |
| --- | --- |
| Cc1c(CCCO)ccc(OCc2c(Cl)ccn2-c2ccc(Cl)cc2)c1C | 5.93 |
| O=C(O)CCc1cc(F)c(OCc2c(C(F)(F)F)ccn2-c2ccc(F)c(F)c2)c(F)c1 | 6.76 |
| COc1ccc(-n2ccc(C(F)(F)F)c2COc2c(F)cc(CCCO)cc2F)cc1 | 7.17 |
| O=C(O)CCc1ccc(OCc2c(C(F)(F)F)ccn2-c2cccc(F)c2)cc1C(F)(F)F | 6.17 |
| Cc1c(CCC(=O)O)ccc(OCc2c(Cl)ccn2-c2ccc(Cl)cc2)c1C | 6.76 |

A: CCc1ccc(-n2ccc(C(F)(F)F)c2COc2ccc(CCCO)c(F)c2F)cn1
B: Cc1c(CCC(=O)O)ccc(OCc2c(C(F)(F)F)ccn2-c2ccc(F)cc2)c1C
C: OCCCc1ccc(OCc2c(Cl)ccn2-c2ccc(Cl)cc2)c(F)c1F
Arrange these 3 compounds in increasing order of pEC50. Field: ranking. Enter the labels in the order requested.
C, B, A

###

# system under test: short form of the GPR120 receptor (Homo sapiens)
# assay: Human GPR120 DiscoveRx PathHunter β-Arrestin assay, Procedure β-arrestin B
# measurement setup: PathHunter CHO-K1 GPR120S β-Arrestin cell line, 5000 cells/well
readout label: EC50 (nM)

| compound | EC50, nM |
| --- | --- |
| Cc1ccc(-n2ccc(C(F)(F)F)c2COc2c(F)cc(CCC(=O)O)cc2F)cc1 | 219 |
| CCc1ccc(-n2ccc(C(F)(F)F)c2COc2c(F)cc(CC(C)C(=O)O)cc2F)cc1 (stereo not shown) | 639 |
| Cc1c(CCC(=O)O)ccc(OCc2c(C(F)(F)F)ccn2-c2ccc(F)c(F)c2)c1C | 1420 |
| Cc1ccc(-n2ccc(C(F)(F)F)c2COc2c(F)cc(CC(C)C(=O)O)cc2F)cc1F (stereo not shown) | 264 |

a: Cc1ccc(-n2ccc(C(F)(F)F)c2COc2c(F)cc(CCC(=O)O)cc2F)cc1F
b: O=C(O)CCc1cc(F)c(OCc2c(C(F)(F)F)ccn2-c2ccc(Cl)cc2F)c(F)c1
When their EC50 values are compared, which is larger, a or b ? Provide the label of your selected option as the answer.
b
(b: 624 nM, a: 96 nM)

I: CCc1ccc(-n2ccc(C(F)(F)F)c2COc2ccc(CCC(=O)O)c(F)c2F)cc1
II: O=C(O)CCc1cc(F)c(OCc2c(C(F)(F)F)ccn2-c2ccc(F)cc2F)c(F)c1
When their EC50 values are compared, which is larger, I or II ? Provide the label of your selected option as the answer.
II
(II: 577 nM, I: 179 nM)

P: O=C(O)CCc1cc(F)c(OCc2c(C(F)(F)F)ccn2-c2ccc(Cl)c(F)c2)c(F)c1
Q: Cc1c(CCC(=O)O)ccc(OCc2c(C(F)(F)F)ccn2-c2ccc(Cl)c(F)c2)c1C
When their EC50 values are compared, which is larger, P or Q ? Provide the label of your selected option as the answer.
Q
(Q: 311 nM, P: 206 nM)

A: Cc1ccc(-n2ccc(C(F)(F)F)c2COc2c(F)cc(CC(C)C(=O)O)cc2F)cc1 (stereo not shown)
B: O=C(O)CCc1cc(F)c(OCc2c(C(F)(F)F)ccn2-c2ccc(Cl)cc2)c(F)c1
Compare reported EC50 values for A and B . Which is lower? Provide the label of your selected option as the answer.
B
(B: 69 nM, A: 549 nM)

###

# system under test: long form of human GPR120 (Homo sapiens, UniProt Q5NUL3)
# assay: Human GPR120 DiscoveRx PathHunter β-Arrestin assay, Procedure β-arrestin A
# measurement setup: PathHunter CHO-K1 GPR120 β-Arrestin cell line, 3000 cells per well
# Description: The binding of an agonist (medium/long chain fatty acids or small molecule agonists) to the G-protein-coupled receptor GPR120 activates phospholipase C, leading to release of intracellular Ca^+2 through the generation of inositol 1,4,5-trisphosphate (InsP3 or IP3). […] In the present method, agonist-induced activation of the human GPR120 receptor is monitored through the use of PathHunter CHO-K1 GPR120 β-Arrestin Cell Line engineered by DiscoveRx, as detailed below. […]
pEC50: −log10 of the molar value.
readout label: pEC50

| smiles code | numeric readout |
| --- | --- |
| Cc1c(CCCO)ccc(OCc2c(C(F)(F)F)ccn2-c2ccc(Cl)cc2)c1C | 6.62 |
| Cc1ccc(-n2ccc(C(F)(F)F)c2COc2ccc(CCCO)c(F)c2F)cc1 | 7.01 |
| COc1ccc(-n2ccc(C(F)(F)F)c2COc2ccc(CCCO)c(C)c2C)cc1 | 6.69 |

A: Cc1ccc(-n2ccc(C(F)(F)F)c2COc2ccc(CCCO)c(F)c2F)cn1
B: Cc1ccc(-n2ccc(C(F)(F)F)c2COc2c(F)cc(CCCO)cc2F)cc1
C: OCCCc1cc(F)c(OCc2c(C(F)(F)F)ccn2-c2ccc(Br)cc2)c(F)c1
D: CCc1ccc(-n2ccc(C(F)(F)F)c2COc2ccc(CCC(=O)O)c(C)c2C)cc1
E: O=C(O)CCc1cc(F)c(OCc2c(C(F)(F)F)ccn2-c2ccccc2)c(F)c1
Arrange these 5 compounds in increasing order of pEC50. Field: ranking. Enter the labels in the order requested.
E, A, D, C, B
(E: 6.17, A: 6.62, D: 6.92, C: 7.60, B: 7.80)

Data origin, for the record: patent US8912227B1
